target: Gamma-secretase (Homo sapiens) (UniProt Q96BI3+Q9NZ42+Q8WW43+P49768+Q92542+P49810); assay: Modulation of gamma secretase in HEK293 cells expressing APP-C99 assessed as decrease in Abeta42 levels at 5 uM incubated for 2 hrs by sandwich ELISA; assay type: cell-based
Calls of active or inactive are those of the source. No cut-off for these calls is given here.
readout_label: Activity

Cc1cn(-c2ccc(-c3csc(Nc4cc(C)c(F)cc4C)n3)cc2F)cn1 | inactive
Cc1cn(-c2ccc(-c3csc(Nc4ccc(Cl)cc4Cl)n3)cc2F)cn1 | inactive
Cc1cn(-c2ccc(-c3csc(Nc4c(F)cccc4F)n3)cc2F)cn1 | inactive
Cc1cn(-c2ccc(-c3csc(Nc4cc(Br)c(Br)cc4Br)n3)cc2F)cn1 | inactive
Cc1cn(-c2ccc(-c3csc(Nc4ccc(F)c(F)c4)n3)cc2F)cn1 | inactive
Cc1cn(-c2ccc(-c3csc(Nc4cccc(F)c4F)n3)cc2F)cn1 | inactive
Cc1cn(-c2ccc(-c3csc(Nc4ccccc4F)n3)cc2F)cn1 | inactive
Cc1cn(-c2ccc(-c3csc(Nc4cc(Cl)c(Cl)cc4Cl)n3)cc2F)cn1 | inactive
Cc1cn(-c2ccc(-c3csc(Nc4cc(F)ccc4F)n3)cc2F)cn1 | inactive
Cc1cn(-c2ccc(-c3csc(Nc4cc(C)c(C)cc4F)n3)cc2F)cn1 | inactive
Cc1cn(-c2ccc(-c3csc(Nc4cccc(F)c4)n3)cc2F)cn1 | inactive
Cc1cn(-c2ccc(-c3csc(Nc4ccc(F)cc4)n3)cc2F)cn1 | inactive
Cc1cn(-c2ccc(-c3csc(Nc4cc(F)c(C)cc4C)n3)cc2F)cn1 | inactive
Cc1cn(-c2ccc(-c3csc(Nc4ccc(F)cc4F)n3)cc2F)cn1 | inactive
